// melting point lookup, one value per entry

Cc1cc(Cl)c(C)cc1N :: 94 to 96 °C
Cc1onc(-c2c(F)cccc2Cl)c1C(N)=O :: 127 to 129 °C
CC1(C)N[C@H](C(=O)O)Cc2c1[nH]c1ccccc21 :: 227 to 228 °C
NNC(=O)C1CC1C(=O)NN (stereo unspecified) :: 187 to 191 °C

Quick one: melting point of `NC(=O)c1ccc2c(c1)OCO2` ?
167 to 169 °C

Quick one: melting point of `NS(=O)(=O)c1cnccc1Cl` ?
150 to 155 °C

Quick one: melting point of CCOC(=O)C1CSCCN1 (stereo unspecified) ?
118 to 121 °C

Quick one: melting point of `CC(C)(C)OC(=O)N1CCC(Oc2ccc(C(=O)O)cc2)CC1` ?
175 to 177 °C

Quick one: melting point of `COc1cc(-c2n[nH]c(=S)n2/N=C/c2ccccc2O)cc(OC)c1OC` ?
220 to 222 °C

Quick one: melting point of `N#Cc1c(F)cccc1OCC(F)(F)F` ?
88 to 90 °C

Quick one: melting point of `N#CCc1ccc2ccccc2c1` ?
78 to 88 °C

Quick one: melting point of `N#Cc1cc(Cl)ccc1[N+](=O)[O-]` ?
89 to 94 °C

Quick one: melting point of `COc1ccc(C=CC(=O)c2ccc(F)cc2)cc1OC` ?
88 to 93 °C

Quick one: melting point of `Nc1ccc(Cn2cccn2)cc1` ?
67 to 69 °C

Quick one: melting point of `N#CCS(=O)(=O)c1ccc(F)cc1` ?
87 to 89 °C

Quick one: melting point of `O=C(c1ccccc1)c1ccc2c3c(cccc13)CC2` ?
101 °C

Quick one: melting point of C=CC(O)COS(=O)(=O)c1ccc(C)cc1 (stereo unspecified) ?
57 to 63 °C
